System: K562 (chronic myelogenous leukaemia)
Assay: Effect of compounds on tumor cell lines (assay of Latham et al.), K562
Assay type: cell-based
Conditions: K562 cells, 96 hours after treatment, 1 μM to 100 μM; read-out: K 562 potency (IC50)
Overview of recorded IC50 for various molecules

[
  {
    "item smiles": "O=C(C(=Cc1ccc[nH]1)SCc1ccc(Cl)cc1)c1ccc(Cl)cc1",
    "reported": "10 to 25 µM"
  }
]

Look up and state reported IC50 for `O=C(/C(=C\c1ccc(F)c([N+](=O)[O-])c1)SCc1ccc(F)cc1)c1ccc(F)cc1`
≤ 1 µM

Look up and state reported IC50 for `Cc1ccc(CS/C(=C/c2ccc(F)c([N+](=O)[O-])c2)C(=O)c2ccc(Cl)c([N+](=O)[O-])c2)cc1`
≤ 1 µM

Look up and state reported IC50 for `CSc1ccc(C=C(SCc2ccc(Cl)cc2)C(=O)c2ccc(Cl)cc2)cc1`
1 to 10 µM

Look up and state reported IC50 for `Cc1ccc(CSC(=Cc2ccc(C)s2)C(=O)c2ccc(Cl)cc2)cc1`
50 to 100 µM

Look up and state reported IC50 for `O=C(O)c1ccc(C(=O)/C(=C\c2ccc(O)c([N+](=O)[O-])c2)SCc2ccc(Br)cc2)cc1`
50 to 100 µM

Look up and state reported IC50 for `Cc1ccc(CSC(=Cc2ccc[nH]2)C(=O)c2ccc(Cl)cc2)cc1`
1 to 10 µM

###

Test system: K562 (chronic myelogenous leukaemia)
Experiment: Effect of compounds on tumor cell lines (assay of Latham et al.), K562
Assay type: cell-based
Conditions: K562 cells, 96 hours after treatment, 1 μM to 100 μM; read-out: K 562 potency (IC50)
Overview of recorded IC50 for various molecules

[
  {
    "molecule": "CSc1ccc(C=C(SCc2ccc(C)cc2)C(=O)c2ccc(Cl)cc2)cc1 [Example 294]",
    "experimental target": "K562 (chronic myelogenous leukaemia)",
    "reported": "10 to 25 µM"
  },
  {
    "molecule": "O=C(C(=Cc1ccccc1OCc1ccccc1)SCc1ccc(Cl)c(Cl)c1)c1ccc(Cl)cc1 [Example 139]",
    "experimental target": "K562 (chronic myelogenous leukaemia)",
    "reported": "10 to 25 µM"
  },
  {
    "molecule": "COc1cc(OC)c(OC)cc1C=C(SCc1ccc(Br)cc1)C(=O)c1ccc([N+](=O)[O-])cc1 [Example 305]",
    "experimental target": "K562 (chronic myelogenous leukaemia)",
    "reported": "10 to 25 µM"
  },
  {
    "molecule": "O=C(O)c1ccc(C(=O)/C(=C\\c2ccc(Br)cc2)SCc2ccc(Br)cc2)cc1 [Example 166]",
    "experimental target": "K562 (chronic myelogenous leukaemia)",
    "reported": "1 to 10 µM"
  },
  {
    "molecule": "O=C(O)c1ccc(C(=O)/C(=C\\c2ccc(Br)c([N+](=O)[O-])c2)SCc2ccc(Br)cc2)cc1 [Example 165]",
    "experimental target": "K562 (chronic myelogenous leukaemia)",
    "reported": "1 to 10 µM"
  },
  {
    "molecule": "CSc1ccc(C=C(SCc2ccc(Cl)cc2)C(=O)c2ccc(C(=O)O)cc2)cc1 [Example 223]",
    "experimental target": "K562 (chronic myelogenous leukaemia)",
    "reported": "> 100 µM"
  },
  {
    "molecule": "O=C(C(=Cc1ccc(OCc2ccccc2)cc1)SCc1cccc(Cl)c1)c1ccc(Br)cc1 [Example 146]",
    "experimental target": "K562 (chronic myelogenous leukaemia)",
    "reported": "1 to 10 µM"
  },
  {
    "molecule": "O=C(/C(=C\\c1ccc(O)c([N+](=O)[O-])c1)SCc1ccc(Br)cc1)c1c(F)c(F)c(F)c(F)c1F [Example 175]",
    "experimental target": "K562 (chronic myelogenous leukaemia)",
    "reported": "10 to 25 µM"
  }
]

Look up and state reported IC50 for O=C(C(=Cc1ccc(O)cc1)SCc1ccc(Cl)cc1)c1ccc(Br)cc1 [Example 221]
1 to 10 µM

Look up and state reported IC50 for CSc1ccc(/C=C(/SCc2ccc(Br)cc2)C(=O)c2ccc(C(=O)O)cc2)cc1 [Example 188]
25 to 50 µM
